- target or test system: BATF (human) (UniProt Q16520)
- Sequence (Q16520 whole entry): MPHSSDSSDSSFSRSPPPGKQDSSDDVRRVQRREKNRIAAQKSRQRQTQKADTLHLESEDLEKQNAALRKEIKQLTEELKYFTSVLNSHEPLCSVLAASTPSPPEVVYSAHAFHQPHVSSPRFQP
- method notes: FRET or BRET; direct-binding FRET in 384-well plates; rhodamine-labelled design (acceptor) titrated 0 to 1 uM into 10 nM fluorescein-labelled bZIP (donor); 150 mM KCl, 50 mM potassium phosphate pH 7.4, 0.1% Tween-20, 0.1% BSA; 37 °C
Where no end group is shown, it is not given here.

binder	Kd
ATF5-d1 labeled at the N-terminus (designed binder) GESKEYKKGSGSC(Rhodamine Red C2‑maleimide)GKRIAYLRQRIAELRNENHVLESRIQRMEKEKDALQQDRDHLEYEL	> 5 µM
